Reference source: ChEMBL document CHEMBL5543097

test system: Staphylococcus epidermidis; experiment: Antibacterial activity against erythromycin-resistant Staphylococcus epidermidis 19-11 assessed as inhibition of visible bacterial growth incubated for 18 hrs by broth microdilution method; assay type: functional
Assay Readout: MIC

CC[C@H]1OC(=O)[C@@](C)(F)C(=O)[C@H](C)[C@@H](O[C@@H]2O[C@H](C)C[C@H](N(C)C)[C@H]2O)[C@](C)(OC)C[C@@H](C)C(=O)[C@H](C)[C@H]2N(CCCOC(=O)Nc3ccc(C(F)(F)F)cc3)C(=O)O[C@]12C : < 0.03 µg/mL

Each molecule below has a recorded value; state its MIC.
1. CC[C@H]1OC(=O)[C@@](C)(F)C(=O)[C@H](C)[C@@H](O[C@@H]2O[C@H](C)C[C@H](N(C)C)[C@H]2O)[C@](C)(OC)C[C@@H](C)C(=O)[C@H](C)[C@H]2N(CCCOC(=O)Nc3ccc4c(c3)OCO4)C(=O)O[C@]12C
2. CC[C@H]1OC(=O)[C@@](C)(F)C(=O)[C@H](C)[C@@H](O[C@@H]2O[C@H](C)C[C@H](N(C)C)[C@H]2O)[C@](C)(OC)C[C@@H](C)C(=O)[C@H](C)[C@H]2N(CCCOC(=O)Nc3c(F)cccc3F)C(=O)O[C@]12C
3. CC[C@H]1OC(=O)[C@@](C)(F)C(=O)[C@H](C)[C@@H](O[C@@H]2O[C@H](C)C[C@H](N(C)C)[C@H]2O)[C@](C)(OC)C[C@@H](C)C(=O)[C@H](C)[C@H]2N(CCCOC(=O)Nc3ccccc3C)C(=O)O[C@]12C

Response line:
< 0.03 µg/mL
< 0.03 µg/mL
< 0.03 µg/mL

====

experiment: Cytotoxicity against mouse AML12 cells assessed as reduction in cell viability incubated for 48 hrs by MTT assay; type: toxicity, cell-based
Exercise: state measured CC50 at 48 h for each of the compounds provided.
Numbers only, in µM.

Each compound below has a recorded value; state its CC50 at 48 h.
1. CC[C@H]1OC(=O)[C@@](C)(F)C(=O)[C@H](C)[C@@H](O[C@@H]2O[C@H](C)C[C@H](N(C)C)[C@H]2O)[C@](C)(OC)C[C@@H](C)C(=O)[C@H](C)[C@H]2N(CCCOC(=O)Nc3cc(C)ccc3C)C(=O)O[C@]12C
2. CC[C@H]1OC(=O)[C@@](C)(F)C(=O)[C@H](C)[C@@H](O[C@@H]2O[C@H](C)C[C@H](N(C)C)[C@H]2O)[C@](C)(OC)C[C@@H](C)C(=O)[C@H](C)[C@H]2N(CCCOC(=O)Nc3ccc(-c4ncccn4)cc3)C(=O)O[C@]12C

Response line:
[33.1, 20.4]

Prompt line: Give its CC50 at 48 h value. Item: "CC[C@H]1OC(=O)[C@@](C)(F)C(=O)[C@H](C)[C@@H](O[C@@H]2O[C@H](C)C[C@H](N(C)C)[C@H]2O)[C@](C)(OC)C[C@@H](C)C(=O)[C@H](C)[C@H]2N(CCCOC(=O)Nc3cccc(C)c3)C(=O)O[C@]12C"
Response line: 76.8

====

assay: Cytotoxicity against mouse AML12 cells assessed as reduction in cell viability incubated for 48 hrs by MTT assay; format: toxicity, cell-based
Exercise: state measured CC50 at 48 h for each of the compounds provided.
Answers are plain numbers, in µM.

CC[C@H]1OC(=O)[C@@](C)(F)C(=O)[C@H](C)[C@@H](O[C@@H]2O[C@H](C)C[C@H](N(C)C)[C@H]2O)[C@](C)(OC)C[C@@H](C)C(=O)[C@H](C)[C@H]2N(CCCOC(=O)Nc3ccc(C(F)(F)F)cc3)C(=O)O[C@]12C : 19.6
CC[C@H]1OC(=O)[C@@](C)(F)C(=O)[C@H](C)[C@@H](O[C@@H]2O[C@H](C)C[C@H](N(C)C)[C@H]2O)[C@](C)(OC)C[C@@H](C)C(=O)[C@H](C)[C@H]2N(CCCOC(=O)Nc3ccccc3[N+](=O)[O-])C(=O)O[C@]12C : 27.4
CCOc1ccc(NC(=O)OCCCN2C(=O)O[C@]3(C)[C@@H](CC)OC(=O)[C@@](C)(F)C(=O)[C@H](C)[C@@H](O[C@@H]4O[C@H](C)C[C@H](N(C)C)[C@H]4O)[C@](C)(OC)C[C@@H](C)C(=O)[C@H](C)[C@@H]23)cc1 : 36.5

Each compound below has a recorded value; state its CC50 at 48 h.
1. CC[C@H]1OC(=O)[C@H](C)C(=O)[C@H](C)[C@@H](O[C@@H]2O[C@H](C)C[C@H](N(C)C)[C@H]2O)[C@](C)(OC)C[C@@H](C)C(=O)[C@H](C)[C@H]2N(CCCOC(=O)Nc3ccc(C(F)(F)F)cc3)C(=O)O[C@]12C
2. CC[C@H]1OC(=O)[C@@](C)(F)C(=O)[C@H](C)[C@@H](O[C@@H]2O[C@H](C)C[C@H](N(C)C)[C@H]2O)[C@](C)(OC)C[C@@H](C)C(=O)[C@H](C)[C@H]2N(CCCOC(=O)Nc3ccc(-c4ccccc4)cc3)C(=O)O[C@]12C
3. CC[C@H]1OC(=O)[C@@](C)(F)C(=O)[C@H](C)[C@@H](O[C@@H]2O[C@H](C)C[C@H](N(C)C)[C@H]2O)[C@](C)(OC)C[C@@H](C)C(=O)[C@H](C)[C@H]2N(CCCOC(=O)Nc3cccc(C(F)(F)F)c3)C(=O)O[C@]12C
4. CC[C@H]1OC(=O)[C@@](C)(F)C(=O)[C@H](C)[C@@H](O[C@@H]2O[C@H](C)C[C@H](N(C)C)[C@H]2O)[C@](C)(OC)C[C@@H](C)C(=O)[C@H](C)[C@H]2N(CCCOC(=O)Nc3cccc(Cl)c3)C(=O)O[C@]12C
5. CC[C@H]1OC(=O)[C@@](C)(F)C(=O)[C@H](C)[C@@H](O[C@@H]2O[C@H](C)C[C@H](N(C)C)[C@H]2O)[C@](C)(OC)C[C@@H](C)C(=O)[C@H](C)[C@H]2N(CCCOC(=O)Nc3ccc(C)cc3)C(=O)O[C@]12C
6. CC[C@H]1OC(=O)[C@@](C)(F)C(=O)[C@H](C)[C@@H](O[C@@H]2O[C@H](C)C[C@H](N(C)C)[C@H]2O)[C@](C)(OC)C[C@@H](C)C(=O)[C@H](C)[C@H]2N(CCCOC(=O)Nc3ccccc3OC)C(=O)O[C@]12C

Response line:
[73.8, 20.7, 12.4, 43.3, 83.2, 83.8]

Prompt line: Give its CC50 at 48 h value. Item: "CC[C@H]1OC(=O)[C@@](C)(F)C(=O)[C@H](C)[C@@H](O[C@@H]2O[C@H](C)C[C@H](N(C)C)[C@H]2O)[C@](C)(OC)C[C@@H](C)C(=O)[C@H](C)[C@H]2N(CCCOC(=O)Nc3cccc(SC)c3)C(=O)O[C@]12C"
Response line: 34.4
